Experiment: Growth inhibition of human A549 cells expressing MCT1 at 50 uM incubated for 72 hrs by MTT assay relative to control
Format: toxicity, cell-based
Details: read-out: GI
ENDPOINT: inhibition at 72 h, 50 µM

// query // returns reported inhibition at 72 h, 50 µM for input O=C(O)C(=O)CBr [BROMOPYRUVATE]
// result ≥ 90%
